Tested Target: PI3Kγ (Homo sapiens (Human), UniProt P48736)
Sequence (P48736 whole entry, canonical isoform): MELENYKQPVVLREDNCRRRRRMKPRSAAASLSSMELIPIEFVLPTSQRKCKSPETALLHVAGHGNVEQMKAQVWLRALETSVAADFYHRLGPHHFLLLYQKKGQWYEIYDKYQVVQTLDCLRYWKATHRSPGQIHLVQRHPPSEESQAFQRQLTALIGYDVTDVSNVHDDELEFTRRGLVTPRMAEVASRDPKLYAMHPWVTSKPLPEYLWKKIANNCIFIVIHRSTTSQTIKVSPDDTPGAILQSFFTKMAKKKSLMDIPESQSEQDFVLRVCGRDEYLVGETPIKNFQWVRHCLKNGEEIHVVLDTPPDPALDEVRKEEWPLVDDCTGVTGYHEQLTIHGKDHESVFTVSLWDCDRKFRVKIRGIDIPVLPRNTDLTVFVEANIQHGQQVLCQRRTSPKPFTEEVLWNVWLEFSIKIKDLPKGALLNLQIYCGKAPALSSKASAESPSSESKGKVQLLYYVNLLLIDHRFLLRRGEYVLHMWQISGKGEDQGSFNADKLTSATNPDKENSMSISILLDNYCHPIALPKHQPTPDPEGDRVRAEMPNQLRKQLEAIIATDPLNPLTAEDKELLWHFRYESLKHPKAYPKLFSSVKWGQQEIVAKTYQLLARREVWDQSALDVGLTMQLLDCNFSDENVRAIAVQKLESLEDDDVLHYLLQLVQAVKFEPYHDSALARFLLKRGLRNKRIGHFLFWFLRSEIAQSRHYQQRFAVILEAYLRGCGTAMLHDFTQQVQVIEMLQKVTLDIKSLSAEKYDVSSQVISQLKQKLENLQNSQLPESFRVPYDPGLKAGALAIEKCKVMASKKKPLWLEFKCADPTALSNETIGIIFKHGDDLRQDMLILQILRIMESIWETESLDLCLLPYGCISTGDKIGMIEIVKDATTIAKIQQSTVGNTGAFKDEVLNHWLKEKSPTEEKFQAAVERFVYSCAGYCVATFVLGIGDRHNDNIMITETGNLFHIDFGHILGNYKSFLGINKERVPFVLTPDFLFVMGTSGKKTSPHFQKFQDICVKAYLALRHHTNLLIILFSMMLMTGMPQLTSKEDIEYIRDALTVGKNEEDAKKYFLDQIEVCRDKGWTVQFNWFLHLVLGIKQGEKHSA
Assay Text: PI3K gamma isoform inhibition
Kindly state IC50 for each of the entries shown.

Look over these answered cases.
INSERT INTO assay_data (structure_as_smiles, experimental_readout, recorded_measurement) VALUES
  ('O=c1cc(N2CCOCC2)oc2ccsc12', 'IC50', '> 50 µM'),
  ('Cc1sc2c(c1C)C(c1ccc(Cl)cc1)=N[C@@H](CC(=O)OC(C)(C)C)c1nnc(C)n1-2', 'IC50', '> 50 µM');

Record `O=c1cc(N2CCOCC2)oc2c(Br)csc12` , field IC50: 2.2 µM
